Target: whole brain AChE (Mus musculus)
Sequence (P21836 32-614): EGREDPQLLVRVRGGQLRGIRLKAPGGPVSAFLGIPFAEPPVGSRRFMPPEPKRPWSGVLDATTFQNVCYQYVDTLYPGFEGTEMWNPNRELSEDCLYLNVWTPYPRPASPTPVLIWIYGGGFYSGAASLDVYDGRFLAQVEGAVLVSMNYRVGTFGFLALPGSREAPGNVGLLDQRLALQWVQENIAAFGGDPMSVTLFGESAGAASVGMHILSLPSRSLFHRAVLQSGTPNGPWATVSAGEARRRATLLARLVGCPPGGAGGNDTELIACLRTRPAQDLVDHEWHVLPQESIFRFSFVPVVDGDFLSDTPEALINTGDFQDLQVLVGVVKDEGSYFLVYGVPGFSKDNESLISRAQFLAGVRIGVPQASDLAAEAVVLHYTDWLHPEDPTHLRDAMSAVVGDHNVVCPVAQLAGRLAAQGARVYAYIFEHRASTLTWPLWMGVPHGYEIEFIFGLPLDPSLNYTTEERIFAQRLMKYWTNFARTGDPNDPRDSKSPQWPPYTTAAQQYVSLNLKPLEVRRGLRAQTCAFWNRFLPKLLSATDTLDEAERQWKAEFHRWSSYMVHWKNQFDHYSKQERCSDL
Details: mice, whole brain; at peak of activity
Structures can show the parent of a compound that is named as a salt.
reported.property: AChE Inhibition Ex vivo ED50 (AC) (µmol/kg)
One number for each entry, in µmol/kg.

Worked cases, AChE Inhibition Ex vivo ED50 (AC) given:
CCN(C)C(=O)Oc1ccc2c(c1)C(NC)CC2 (centres unmarked) [Compound 10]    34.7
C#CCNC1CCc2ccc(OC(=O)NCCC)cc21 (centres unmarked) [Compound 57]    70
C#CCNC1CCc2ccc(OC(=O)N(C)CCC)cc21 (centres unmarked) [Compound 26]    120
C#CCNC1CCc2c(OC(=O)N(C)C)cccc21 (centres unmarked) [Compound 34]    0.65

Field: AChE Inhibition Ex vivo ED50 (AC). Fill in for each record below.
1. C#CCNC1CCc2ccc(OC(=O)N(C)C)cc21 (centres unmarked) [Compound 23]
2. CCN(C)C(=O)Oc1ccc2c(c1)C(N)CC2 (centres unmarked) [Compound 3, 6-(N-Me,N-Et Carbamyloxy) aminoindan HCl]

[A]
[22.4, 46.3]

Field: AChE Inhibition Ex vivo ED50 (AC). Fill in for each record below.
1. C#CCNC1CCc2ccc(OC(=O)N(C)CCCC)cc21 (centres unmarked) [Compound 81]
2. C#CCN(C)C1CCc2ccc(OC(=O)N(C)C)cc21 (centres unmarked) [Compound 29]
3. C#CCNC1CCc2ccc(OC(=O)N(C)c3ccccc3)cc21 (centres unmarked) [Compound 62]
4. C#CCNC1CCc2c(OC(=O)N(C)CC)cccc21 (centres unmarked) [Compound 35]
5. CN(C)C(=O)Oc1ccc2c(c1)C(N)CC2 (centres unmarked) [Compound 1]
6. C#CCN(C)C1CCc2cccc(OC(=O)N(C)C)c21 (centres unmarked) [Compound 32]
7. CCN(C)C(=O)Oc1cccc2c1C(N)CC2 (centres unmarked) [Compound 5]

[A]
1. 40
2. 53.7
3. 290
4. 10
5. 5.0
6. 7.8
7. 85.0

Field: AChE Inhibition Ex vivo ED50 (AC). Fill in for each record below.
1. C#CCN(CC)C1CCc2ccc(OC(=O)N(C)C)cc21 (centres unmarked) [Compound 31]
2. C#CCNC1CCc2ccc(OC(=O)NCC)cc21 (centres unmarked) [Compound 56]
3. C#CCNC1CCc2ccc(OC(=O)N(C)c3ccc(OC)cc3)cc21 (centres unmarked) [Compound 61]
4. CN(C)C(=O)Oc1ccc2c(c1)C(N(C)C)CC2 (centres unmarked) [Compound 12]

[A]
[110, 180, 47, 8.0]

Per the record, C#CCNC1CCc2ccc(OC(=O)N(C)CC)cc21 (centres unmarked) [Compound 25, HCl] has AChE Inhibition Ex vivo ED50 (AC) of 140.0
